test system: DU-145 prostate; assay: NCI tumour cell line growth inhibition, 48 h
Metric: GI50

>>> print(df.to_string())
                                    compound  measured_result
 0              NC(=S)N=Nc1c(O)[nH]c2ccccc12           126 µM
 1  CC(=O)Nc1nc(C)c(-c2cc3c(c(S(C)(=O)=O)c2)C(=O)N([C@@H](C)C2CC2)C3)s1          29.5 µM
 2  COC(=O)[C@]1(C)CC[C@]2(C)CC[C@]3(C)C(=CC(=O)[C@@H]4[C@@]5(C)CCC(=O)NC(C)(C)[C@@H]5CC[C@]43C)[C@@H]2C1          20.9 µM
 3            CCC(=O)Oc1ccc(/C=N/NC(N)=S)nc1          3.05 µM
 4  COc1cc(OC)c2c(c1Cl)O[C@]1(C2=O)C(OCc2ccccc2)=CC(=O)C[C@H]1C         0.485 µM
 5  COC(=O)C1=C(O)C(C(=O)OC)[C@@]2(O)[C@@H](C(=O)OC)C(c3ccccc3Cl)C[C@@H]1[C@@H]2C(=O)OC (stereo partly specified)          14.9 µM
 6  CN1CCN(Cc2ccc(NC(=O)c3cncc(C#Cc4ncc5ccccn45)c3)cc2C(F)(F)F)CC1          1.35 µM
 7  COc1ccc(CNC(=O)c2c(C)n([O-])c3cc(F)c(F)cc3[n+]2=O)cc1          13.7 µM
 8  O=C(CN1CCN(c2ccccn2)CC1)Nc1ccc(Cl)cc1C(=O)c1ccccc1Cl         > 100 µM
 9  CC1CC2(C)CC(=O)C1C1C(=O)N(CCN3CCOCC3)C(=O)C12 (stereo unspecified)         > 100 µM
10       O=S1(=O)C=C(c2ccccc2)C(c2ccccc2)=C1          1.64 µM

###

Below, each entry is listed with its recorded GI50.
test system: SK-MEL-28 melanoma; experiment: NCI tumour cell line growth inhibition, 48 h
Metric: GI50

>>> print(df.to_string())
                                    compound  measured_result
 0  CN1C(=O)C(C)(C)Oc2c(-c3cn(C)c(=O)c4[nH]ccc34)cc(S(C)(=O)=O)cc21          3.92 µM
 1  COc1cc2c3c(n(CCCN4CCN(CCO)CC4)c(=O)c2cc1OC)-c1cc2c(cc1C3=O)OCO2          17.5 µM
 2  C=C1C(OCCO)OC2O[C@]3(C)CCC4[C@H](C)CCC1C24OO3 (stereo partly drawn)         > 100 µM
 3  Nc1nc(Cl)c2ncn(Cc3ccc(-c4ccc(CCl)cc4)cc3)c2n1          14.7 µM
 4  CC1CC2(C)CC(=O)C1C1C(=O)N(CCN3CCOCC3)C(=O)C12 (stereo not drawn)         > 100 µM
 5                  NC(N)=N/N=C/c1ccc(Br)cc1          5.61 µM
 6       O=S1(=O)C=C(c2ccccc2)C(c2ccccc2)=C1          1.77 µM
 7  COc1cc(OC)c2c(c1Cl)O[C@]1(C2=O)C(OCc2ccccc2)=CC(=O)C[C@H]1C          1.85 µM
 8  COc1ccc(OC)c(/C=C/C(=O)c2ccc3cc(OC)ccc3c2)c1          3.74 µM
 9  CCCCCCCCCCCCCCCC(N)c1ccccc1 (stereo not drawn)           1.8 µM
10        O=C1C=C(OCC=C(Cl)Cl)C(=O)c2ccccc21          4.91 µM
11  COC(=O)[C@]1(C)CC[C@]2(C)CC[C@]3(C)C(=CC(=O)[C@@H]4[C@@]5(C)CCC(=O)NC(C)(C)[C@@H]5CC[C@]43C)[C@@H]2C1          18.5 µM
12           COn1cc(C(=O)N=C(SC)SC)c2ccccc21            80 µM

###

test system: NCI-H226 lung; assay: NCI tumour cell line growth inhibition, 48 h
Below, each entry is listed with its recorded TGI.
Metric: TGI

>>> df
                                   compound         target  metric  measured_result
0  N#CCCN(CCC#N)c1ccc(/C=C2\N=C(c3ccccc3)N(c3ccccc3)C2=O)cc1  NCI-H226 lung     TGI         > 100 µM
1  O=c1cc(-c2cccc(Br)c2)[nH]c2cc3c(cc12)OCO3  NCI-H226 lung     TGI            37 µM
2  C#CC1(O)CC(c2ccccc2)N(C)C(c2ccccc2)C1 (stereo not given)  NCI-H226 lung     TGI         > 100 µM
3                    NCCNc1ncnc2ccc(Cl)cc12  NCI-H226 lung     TGI         > 100 µM
4  CC(C)CC1NC(=O)C(C(C)C)NC(=O)CC(C)COC(=O)C(CC(C)C)N(C)C(=O)C(C(C)C)NC(=O)C(C(C)C)OC1=O (stereo not given)  NCI-H226 lung     TGI          > 50 µM

###

Below, each entry is listed with its recorded TGI.
test system: CCRF-CEM leukemia; assay: NCI tumour cell line growth inhibition, 48 h
Where a SMILES comes first, the peptide text is derived from it. [ ]: non-standard residue; d: D form. The star is where a group is joined. ξ: configuration not given here. dIva = CC[C@@](C)(N)C(=O)O; Aib = CC(C)(N)C(=O)O; ξP = O=C(O)C1CCCN1; βAla = NCCC(=O)O; X5 = OCN*

Compound	TGI
O=C1OC(=O)C2C1C1C(c3ccccc3)=C(c3ccccc3)C2(O)C2C(=O)OC(=O)C12 (configuration not stated)	> 100 µM
COc1ccc(-c2cc(=O)c3cccnc3[nH]2)cc1	85.6 µM
CCCNC(=O)c1cc(NC(=O)c2cc(NC(=O)CCS(=O)(=O)OC)cn2C)cn1C	3.67 µM
C#Cc1ccccc1N1C(=O)C=CC1=O	> 100 µM
COc1ccc(/C=C2\CC3C4CC=C5C[C@@H](O)CC[C@]5(C)C4CC[C@]3(C)C2=O)cc1OC (some centres not stated)	> 100 µM
COC(=O)C(Cc1ccccc1)N=Cc1c(O)c(O)c(C(C)C)c2cc(C)c(-c3c(C)cc4c(C(C)C)c(O)c(O)c(C=NC(Cc5ccccc5)C(=O)OC)c4c3O)c(O)c12 (configuration not stated)	38.5 µM
CCOC(=O)c1c(CN2CCOCC2)n(Cc2ccccc2)c2c1cc(O)c1nc(C)c(C)nc12	> 100 µM
O=C1/C(=C/c2cccc(F)c2)CN(C(=O)C(Cl)Cl)C/C1=C\c1cccc(F)c1	17.7 µM
Cn1c2c(c3c(=O)[nH]ncc31)CCCc1ccccc1-2	> 100 µM
Cc1ccc2c(c1)C/C(=C\c1ccccc1C(=O)O)C2=O	> 100 µM
CC[C@@](C)(NC(=O)[C@H](C)NC(=O)CCNC(=O)C(C)(C)NC(=O)[C@H](C)NC(=O)[C@@H]1CCCN1C(=O)[C@@](C)(CC)NC(=O)[C@H](Cc1ccccc1)NC(=O)C1CCCN1C(=O)C(C)(C)NC(=O)C1CCCN1C(=O)C(C)(C)NC(C)=O)C(=O)NCCC(=O)N[C@@H](CC(C)C)C(=O)NC(C)(C)C(=O)NCCC(=O)N[C@@H](CC(C)C)C(=O)NC(C)(C)C(=O)NC(C)(C)C(=O)N[C@@H](CC(C)C)C(=O)NCCC(=O)NCO (some centres not stated) (Ac-[Aib][ξP][Aib][ξP]F[dIva]PA[Aib][βAla]A[dIva][βAla]L[Aib][βAla]L[Aib][Aib]L[βAla]-X5)	0.577 µM
O=C(CSCC(=O)N/N=C/c1ccncc1)N/N=C/c1ccncc1	> 100 µM
CCCCCCCCC(=O)NCCN(CCN)C(=O)CCCCCCCC	8.19 µM
O=Cc1ccc2[nH]c(=O)oc2c1	> 100 µM
COC(=O)/C=C/N1CC1	> 10 µM
CC(=O)c1cccc(NC(=O)/C(=N\NC(=S)NN)C2C(=O)Nc3ccccc3S2=O)c1 (configuration not stated)	> 100 µM
CC(=O)Nc1ccc(OCC(O)CO)cc1 (configuration not stated)	> 100 µM

###

test system: SK-MEL-5 melanoma; test: NCI tumour cell line growth inhibition, 48 h; in the data active = GI50 below about 0.43 µM; inactive = the rest
Where a SMILES comes first, the peptide text is derived from it. [ ]: non-standard residue; d: D form. The star is where a group is joined. ξ: configuration not given here. dIva = CC[C@@](C)(N)C(=O)O; Aib = CC(C)(N)C(=O)O; ξP = O=C(O)C1CCCN1; βAla = NCCC(=O)O; X5 = OCN*
Classes used: active, inactive

Compound	Label Value
O=C1C=C(OCC=C(Cl)Cl)C(=O)c2ccccc21	inactive
C[C@H](CCCOS(C)(=O)=O)[C@H]1CC[C@H]2[C@@H]3CC[C@@H]4C[C@H](OS(C)(=O)=O)CC[C@]4(C)[C@H]3CC[C@]12C	inactive
CC1CC2(C)CC(=O)C1C1C(=O)N(CCN3CCOCC3)C(=O)C12 (stereo unspecified)	inactive
CC[C@@](C)(NC(=O)[C@H](C)NC(=O)CCNC(=O)C(C)(C)NC(=O)[C@H](C)NC(=O)[C@@H]1CCCN1C(=O)[C@@](C)(CC)NC(=O)[C@H](Cc1ccccc1)NC(=O)C1CCCN1C(=O)C(C)(C)NC(=O)C1CCCN1C(=O)C(C)(C)NC(C)=O)C(=O)NCCC(=O)N[C@@H](CC(C)C)C(=O)NC(C)(C)C(=O)NCCC(=O)N[C@@H](CC(C)C)C(=O)NC(C)(C)C(=O)NC(C)(C)C(=O)N[C@@H](CC(C)C)C(=O)NCCC(=O)NCO (stereo partly specified) (Ac-[Aib][ξP][Aib][ξP]F[dIva]PA[Aib][βAla]A[dIva][βAla]L[Aib][βAla]L[Aib][Aib]L[βAla]-X5)	active
O=S1(=O)C=C(c2ccccc2)C(c2ccccc2)=C1	inactive
C=C1C(OCCO)OC2O[C@]3(C)CCC4[C@H](C)CCC1C24OO3 (stereo partly specified)	inactive
